Source listed as the supplement of paper PMC10567573.

B1: BRF1 (parent)
chain: FVESSGGGSSAVGQFVSLDGAGKT

Variants of: B1
test_summary: protein stability index of a GFP-peptide fusion (GPS, HEK-293T) (PSI 1-6); higher = more stable;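 further: lentivirally expressed fusions sorted by FACS into six bins by GFP to DsRed ratio, PSI derived from sequencing read proportions per bin multiplied by bin number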
test_settings: c terminus: a fixed tail appended
# binarize protein stability index: threshold 3 inclusive, high side y, low side n

Challenge: Is the recorded value of protein stability index equal to or greater than 3 for this variant? `F15E`
Response given: y

Challenge: Check this variant for protein stability index at or above 3: `G8K`
Response given: n

Challenge: API: above_or_equal(metric=protein stability index, cutoff=3) for item `K23N`
Response given: n

Challenge: Threshold query (protein stability index >= 3) on `V2P`
Response given: y

Challenge: Would you say `F1P` shows protein stability index at minimum 3?
Response given: y

Challenge: Quick check, protein stability index >= 3? `S4E`
Response given: y

Challenge: Reported protein stability index reaches at least 3 for `S9C` ?
Response given: n

Challenge: // inclusive: protein stability index at least 3? input: `G6Q`
Response given: n

Challenge: Given the entry `S17G` , answer whether its protein stability index meets or surpasses 3.
Response given: y

Challenge: Given `S17H` , state whether its protein stability index is at least 3.
Response given: n

***
Challenge: Please tell me: is the variant `D19E` at or over 3 in terms of protein stability index?
Response given: n

Challenge: Decide: is the reported value of protein stability index for `F15Y` equal to or greater than 3?
Response given: n

Challenge: Quick check, protein stability index >= 3? `Q14G`
Response given: n
